Assay system: T1, recombinant human LAG-3 (human, UniProt P18627 23-450, limits assumed)
T1 sequence (looked up): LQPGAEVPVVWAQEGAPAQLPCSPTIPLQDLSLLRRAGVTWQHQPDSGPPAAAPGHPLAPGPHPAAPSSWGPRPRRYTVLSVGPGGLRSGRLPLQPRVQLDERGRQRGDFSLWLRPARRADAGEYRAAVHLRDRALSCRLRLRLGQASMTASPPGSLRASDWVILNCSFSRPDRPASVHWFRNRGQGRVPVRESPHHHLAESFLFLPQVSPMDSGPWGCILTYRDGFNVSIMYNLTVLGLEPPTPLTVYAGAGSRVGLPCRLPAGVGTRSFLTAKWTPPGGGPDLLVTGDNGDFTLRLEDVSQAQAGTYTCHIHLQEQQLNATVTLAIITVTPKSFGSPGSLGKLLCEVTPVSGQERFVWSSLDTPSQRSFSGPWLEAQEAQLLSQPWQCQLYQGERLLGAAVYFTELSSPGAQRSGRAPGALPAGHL
Method summary: surface plasmon resonance (data not shown)

Binder	binding result
P13B02-31 (antibody, IgG1, V domains shown, Humanized; generated as full length IgG1) VH: QVQMVQSGAEVKKPGASVKVSCTASGFNIKDTYIHWVRQAPGQGLEWMGEIDPANDNTKYDPKFQGRVTITADTSTSTVYMELSSLRSEDTAVYYCATYYYKYDVGGFDYWGQGTLVTVSS VL: EIVLTQSPGTLSLSPGERATLSCSVSSSISSSNLHWYQQKPGQAPRLLIYGTSNLASGIPDRFSGSGSGTDFTLTISRLEPEDFAVYYCQQWSSYPFTFGQGTKVEIK	binds
P13B02-05 (antibody, IgG1, V domains shown, Humanized; generated as full length IgG1) VH: QVQLVQSGAEVKKPGASVKVSCKASGFNIKDTYIHWVRQAPGQGLEWMGEIDPANDNTKYDPKFQGRVTMTRDTSTSTVYMELSSLRSEDTAVYYCARYYYRYDVGGFDYWGQGTLVTVSS VL: EILLTQSPGTLSLSPGERATLTCSVSSSISSSNLHWFQQKPGQSPRLWIYGTSNLASGVPDRFSGSGSGTSYTLTISRLEPEDFAVYYCQQWSSYPFTFGQGTKVEIK	binds
P13B02-25 (antibody, IgG1, V domains shown, Humanized; generated as full length IgG1; also called P13B02-25 (IgG1)) VH: QVQMKQSGAEVVKPGASVKVSCTASGFNIKDTYIHWVRQAPGQGLEWIGEIDPANDNTKYDPKFQGRVTITADTSSNTVYLQLSSLRSEDTAVYYCATYYYRYDVGGFDYWGQGTLVTVSS VL: EILLTQSPGTLSLSPGERATLTCSVSSSISSSNLHWFQQKPGQSPRLWIYGTSNLASGVPDRFSGSGSGTSYTLTISRLEPEDFAVYYCQQWSSYPFTFGQGTKVEIK	binds
